# PBM binding z-score listing for each entry below
Test system: VDR:RXRa (NR concentration 270 nM, RXRa partner concentration 90 nM)
Assay: PBM binding z-score (relative to random genomic background probes); higher = stronger binding; sequences stand for … in GC…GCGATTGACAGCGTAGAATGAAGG
Lab note: write the figure by itself, no unit.

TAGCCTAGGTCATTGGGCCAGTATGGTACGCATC    2
GAATATAGGTAATACAAGGTGAAAGTCCGATTGT    0.758
CCTACTGGGCCATTCAGCGGTCATTGATCATATG    -0.109

Query: Looking for the measured PBM binding z-score of `GCATATAGGTAGTACAAGGTGAAAGTCCGATTGT` , can you help?
Result: 0.154

Query: Request the reported PBM binding z-score associated with `GCTGCTAGGACAGGTTGGTCAGCTAACGGGTACG`
Result: -0.674

Query: Recorded PBM binding z-score of `TAGCCTAGGACATTCAGGGGCCAGTATAGAAAGC` , please.
Result: -0.174

Query: I would be grateful if you could share the reported PBM binding z-score for `CGAACTAGGTCAGAAGAGGACAGTGAAGGATGAT` .
Result: 1.69

Query: State the recorded PBM binding z-score for this entry: `CCGTCTGGGGCAAGGTTACCATAACGCACAGCCA`
Result: 0.236

---

Tested on: PPARg:RXRa 270nM:90nM, anti-RXR (NR concentration 270 nM, RXRa partner concentration 90 nM)
Experiment: PBM binding z-score (relative to random genomic background probes); higher = stronger binding; sequences stand for … in GC…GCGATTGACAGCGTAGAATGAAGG
Please map values of PBM binding z-score to classes as shown: 0: < 2; 1: ≥ 2 and < 5; 2: ≥ 5

Here are 5 sequences together with their reported answers.
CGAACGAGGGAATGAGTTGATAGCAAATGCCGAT    0
TCTATTAGTTGATTTGGGCAACCGAAACAGCGGA    0
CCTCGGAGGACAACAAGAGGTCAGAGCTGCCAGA    0
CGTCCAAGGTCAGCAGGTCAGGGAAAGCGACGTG    1
CCGAATAGGTTATGGGGCATTCAGGCAACGGTGA    1

Pending sequence:
Query: Which of the defined bands does the recorded PBM binding z-score of `ACTATAAGTTGACTTAGGGCAACCGATACGACGC` sit within?
Result: 0

---

// reported PBM binding z-score for each item listed
Test system: VDR:RXRa (NR concentration 270 nM, RXRa partner concentration 90 nM)
Assay: PBM binding z-score (relative to random genomic background probes); higher = stronger binding; sequences stand for … in GC…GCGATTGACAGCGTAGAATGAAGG
Hey, just send me the number, nothing else.

The examples below pair each entry with its known result.
ACTTACGGGTCAACGAGATTATAGCACGCGTATA    5
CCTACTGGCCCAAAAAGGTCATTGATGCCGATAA    4.47
TAAACAGGGTCAAAGGCCAGAGTACGAATGTCGA    4.92
ACTAGCAGGACAAGTTTGGGTCACTCAAACAAAG    0.698
GCGACTGGGGCAAAGCAGGTTAACATAAGGTTGG    0.364

Query: // lookup PBM binding z-score for `GCGACTGGGGCATTAGCAGGTTACCATAACTTAA`
Result: -0.196
